- Assay text: Pharmacokinetic study, 4ET-03-009 at 10 mg/kg oral
- Assay type: in vivo, CD-1 male mice
- Settings: male, CD-1, mouse, plasma, po, 10 mg/kg, Mean (n = 3)
Experimental readout: MRT inf
Kindly write the number and append the unit.

Asked: Give recorded MRT inf. `Cc1cc(Nc2cc(NC(=O)C3CC3)ncn2)c(=O)n2c1C(=O)NC21CCOCC1`
Given back: 4.5 h

---

- Assay text: Liver microsome stability, human
- Assay type: in vitro ADME
- Settings: liver microsomes, read-out: Human liver microsomes t1/2
Experimental readout: half-life

Asked: Give recorded half-life. Cc1cc(Nc2cc(NC(=O)C3CC3)ncn2)c(=O)n2c1C(=O)NC21CCC(O)CC1 (centres unmarked)
Given back: 8.45 h

Asked: Give recorded half-life. `Cc1cc(Nc2cc(NCCN3CCOCC3)ncn2)c(=O)n2c1C(=O)NC21CCCCC1`
Given back: 4.1 h

Asked: Give recorded half-life. `Cc1cc(Nc2cc(N)ncn2)c(=O)n2c1C(=O)NC21CCOCC1`
Given back: 10.7 h

---

- Assay text: Pharmacokinetic study, 4ET-03-009 at 10 mg/kg oral
- Format: in vivo, CD-1 male mice
- Settings: male, CD-1, mouse, plasma, po, 10 mg/kg, for the study, read-out: Cmax
Experimental readout: Cmax (nM)
Record the value in nM, omitting the unit from your answer.

Asked: Give recorded Cmax. `Cc1cc(Nc2cc(NC(=O)C3CC3)ncn2)c(=O)n2c1C(=O)NC21CCOCC1`
Given back: 716

---

- Test system: P-gp (human MDR1, ABCB1)
- Assay text: MDCK-MDR1 permeability (blood brain barrier permeability)
- Type: in vitro ADME, Canine
- Settings: dog, MDCK-MDR1, Apical to basolateral transport, 5 μM, average of two experiments
Param threshold (4 ×10⁻⁶ cm/s) applies to Papp A→B at 5 μM; output Y when value >= threshold, N when value < threshold.

Asked: Tell me whether Papp A→B at 5 μM is at least 4 ×10⁻⁶ cm/s here: Cc1cc(Nc2cc(NC(=O)C(C)C)ncn2)c(=O)n2c1C(=O)NC21CCCC1 [Compound 4ET-03-005]
Given back: Y

Asked: Tell me whether Papp A→B at 5 μM is at least 4 ×10⁻⁶ cm/s here: Cc1cc(Nc2cc(N)ncn2)c(=O)n2c1C(=O)NC21Cc2ccccc2[C@@H]1F (single isomer, unassigned) [Compound 4ET-01-010A]
Given back: Y

Asked: Tell me whether Papp A→B at 5 μM is at least 4 ×10⁻⁶ cm/s here: Cc1cc(Nc2cc(N)ncn2)c(=O)n2c1C(=O)NC2(C)C [Compound 4ET-01-003]
Given back: Y

Asked: Tell me whether Papp A→B at 5 μM is at least 4 ×10⁻⁶ cm/s here: Cc1cc(Nc2cc(NC(=O)C3CC3)ncn2)c(=O)n2c1C(=O)NC21CCCC1 [Compound 4ET-03-017]
Given back: Y

Asked: Tell me whether Papp A→B at 5 μM is at least 4 ×10⁻⁶ cm/s here: Cc1cc(Nc2cc(N)ncn2)c(=O)n2c1C(=O)NC21CCC(NS(C)(=O)=O)CC1 (stereo not drawn) [Compound 4ET-01-004]
Given back: N

Asked: Tell me whether Papp A→B at 5 μM is at least 4 ×10⁻⁶ cm/s here: Cc1cc(Nc2cc(NC(=O)C3CC3)ncn2)c(=O)n2c1C(=O)NC21CCC(O)CC1 (stereo not drawn) [Compound 4ET-03-015]
Given back: N

Asked: Tell me whether Papp A→B at 5 μM is at least 4 ×10⁻⁶ cm/s here: Cc1cc(Nc2cc(NC(=O)CN3CCOCC3)ncn2)c(=O)n2c1C(=O)NC21CCCCC1 [Compound 4ET-02-007]
Given back: Y

Asked: Tell me whether Papp A→B at 5 μM is at least 4 ×10⁻⁶ cm/s here: Cc1cc(Nc2cc(NCCO)ncn2)c(=O)n2c1C(=O)NC21CCCC1 [Compound 4ET-03-007]
Given back: N

Asked: Tell me whether Papp A→B at 5 μM is at least 4 ×10⁻⁶ cm/s here: Cc1cc(Nc2cc(N)ncn2)c(=O)n2c1C(=O)NC21CCOCC1 [Compound 4ET-01-002]
Given back: N

Asked: Tell me whether Papp A→B at 5 μM is at least 4 ×10⁻⁶ cm/s here: Cc1cc(Nc2cc(N)ncn2)c(=O)n2c1C(=O)NC21CCCCC1 [eFT508, reference compound]
Given back: Y

Asked: Tell me whether Papp A→B at 5 μM is at least 4 ×10⁻⁶ cm/s here: Cc1cc(Nc2cc(NCCN3CCOCC3)ncn2)c(=O)n2c1C(=O)NC21CCCCC1 [Compound 4ET-02-005]
Given back: Y

Asked: Tell me whether Papp A→B at 5 μM is at least 4 ×10⁻⁶ cm/s here: Cc1cc(Nc2cc(N)ncn2)c(=O)n2c1C(=O)NC21CCC(O)CC1 (stereo not drawn) [Compound 4ET-01-005]
Given back: N

Asked: Tell me whether Papp A→B at 5 μM is at least 4 ×10⁻⁶ cm/s here: Cc1cc(Nc2cc(NC(=O)C3CC3)ncn2)c(=O)n2c1C(=O)NC21Cc2ccccc2[C@@H]1F (single isomer, unassigned) [Compound 4ET-03-052A]
Given back: Y

Asked: Tell me whether Papp A→B at 5 μM is at least 4 ×10⁻⁶ cm/s here: Cc1cc(Nc2cc(NC(=O)C3CC3)ncn2)c(=O)n2c1C(=O)NC21Cc2ccccc2[C@@H]1O (stereo in doubt) [Compound 4ET-03-063]
Given back: Y

Asked: Tell me whether Papp A→B at 5 μM is at least 4 ×10⁻⁶ cm/s here: CCC1=CC2(CCC1)NC(=O)c1c(C)cc(Nc3cc(N)ncn3)c(=O)n12 (stereo not drawn) [Compound 4ET-01-021]
Given back: Y

# credit: patent US20230286983A1
